For each entry below, report its EC50 value.
biological target: Human GLP-1R (Homo sapiens, UniProt P43220); experiment: cAMP level determination in human GLP-1R stably transfected HEK293T cells (HTRF cAMP kit); format: cell-based; details: 37°C 30 min
Sequence (P43220 24-463): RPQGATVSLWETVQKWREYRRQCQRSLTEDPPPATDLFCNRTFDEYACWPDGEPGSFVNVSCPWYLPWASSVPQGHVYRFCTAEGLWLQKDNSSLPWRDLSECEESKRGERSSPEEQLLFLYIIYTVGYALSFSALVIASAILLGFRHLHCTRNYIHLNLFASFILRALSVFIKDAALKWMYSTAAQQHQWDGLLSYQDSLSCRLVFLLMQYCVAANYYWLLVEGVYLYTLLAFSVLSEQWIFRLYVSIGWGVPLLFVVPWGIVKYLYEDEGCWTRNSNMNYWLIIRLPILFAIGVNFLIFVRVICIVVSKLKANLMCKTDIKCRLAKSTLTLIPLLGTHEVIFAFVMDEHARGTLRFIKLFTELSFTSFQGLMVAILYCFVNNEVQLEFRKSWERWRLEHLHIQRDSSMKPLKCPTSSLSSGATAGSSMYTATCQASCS
One number for each entry, in nM.

Cc1cc(-n2nc3c(c2-n2ccn(-c4ccc(C(=O)N(C)C5CC5)c(C(F)(F)F)c4)c2=O)[C@H](C)N(C(=O)c2cc4cc([C@H]5CCOC(C)(C)C5)ccc4n2[C@@]2(c4nc(=O)o[nH]4)C[C@@H]2C)CC3)cc(C)c1F : 5.16
C[C@H]1c2c(nn(-c3ccc(F)c(C4CC4)c3)c2-n2ccn(-c3ccc4c(cnn4C)c3F)c2=O)CCN1C(=O)c1cc2cc([C@@H]3CCOC(C)(C)C3)ccc2n1[C@@]1(c2nc(=O)o[nH]2)C[C@@H]1C : 35.5
Cc1cc(-n2nc3c(c2-n2ccn(-c4ccccc4C#N)c2=O)[C@H](C)N(C(=O)c2cc4cc(C5CCOC(C)(C)C5)ccc4n2[C@@]2(c4nc(=O)o[nH]4)C[C@@H]2C)CC3)cc(C)c1F (stereo partly drawn) : 201
Cc1cc(-n2nc3c(c2-n2ccn(-c4ccc5c(c4)C=CS5(=O)=O)c2=O)[C@H](C)N(C(=O)c2cc4cc([C@@H]5CCOC(C)(C)C5)ccc4n2[C@@]2(c4noc(=O)[nH]4)C[C@@H]2C)CC3)cc(C)c1F [Compound 62a] : 223

For every listed record, write down its EC50.
1. Cc1cc(-n2nc3c(c2-n2ccn(-c4ccc(N(C)C(=O)C5(C)CC5)c(F)c4)c2=O)[C@H](C)N(C(=O)c2cc4cc([C@H]5CCOC(C)(C)C5)ccc4n2[C@@]2(c4nc(=O)o[nH]4)C[C@@H]2C)CC3)cc(C)c1F
2. Cc1cc(-n2nc3c(c2-n2ccn(-c4ccc(C(=O)N(C)C5CC5)c(C(F)(F)F)c4F)c2=O)[C@H](C)N(C(=O)c2cc4cc([C@H]5CCOC(C)(C)C5)ccc4n2[C@@]2(c4nc(=O)o[nH]4)C[C@@H]2C)CC3)cc(C)c1F
3. Cc1cc(-n2nc3c(c2-n2ccn(-c4ccc(N(C)C5CC5)c(Cl)c4)c2=O)[C@H](C)N(C(=O)c2cc4cc(C5CCOC(C)(C)C5)ccc4n2[C@@]2(c4nc(=O)o[nH]4)C[C@@H]2C)CC3)cc(C)c1F (stereo partly drawn)
4. Cc1cc(-n2nc3c(c2-n2ccn(-c4ccc(C#N)cc4)c2=O)[C@H](C)N(C(=O)c2cc4cc(C5CCOC(C)(C)C5)ccc4n2[C@@]2(c4nc(=O)o[nH]4)C[C@@H]2C)CC3)cc(C)c1F (stereo partly drawn)
5. Cc1cc(-n2nc3c(c2-n2ccn(-c4ccc(N(C)C5CC5)c(Cl)c4)c2=O)[C@H](C)N(C(=O)c2cc4cc([C@@H]5CCOC(C)(C)C5)ccc4n2[C@@]2(c4noc(=O)[nH]4)C[C@@H]2C)CC3)cc(C)c1F [Compound 67a]

**A:**
1: 4.01; 2: 5.61; 3: 67.8; 4: 15.1; 5: 51.4
